// endpoint Ki / system D(4) dopamine receptor (Homo sapiens, UniProt P21917)
REPORTED ENDPOINT: Ki (nM)

SMILES NOTATION: COc1cc2ccccc2cc1C(=O)NCC1CCN(Cc2ccccc2)CC1
Ki, nM: 20
//
SMILES NOTATION: O=C(OCC1CCN(Cc2ccccc2)CC1)c1ccc(Cl)cc1
Ki, nM: 25.1

----------
- TEST TARGET: D(2) dopamine receptor (Homo sapiens)
- Sequence (P14416 whole entry): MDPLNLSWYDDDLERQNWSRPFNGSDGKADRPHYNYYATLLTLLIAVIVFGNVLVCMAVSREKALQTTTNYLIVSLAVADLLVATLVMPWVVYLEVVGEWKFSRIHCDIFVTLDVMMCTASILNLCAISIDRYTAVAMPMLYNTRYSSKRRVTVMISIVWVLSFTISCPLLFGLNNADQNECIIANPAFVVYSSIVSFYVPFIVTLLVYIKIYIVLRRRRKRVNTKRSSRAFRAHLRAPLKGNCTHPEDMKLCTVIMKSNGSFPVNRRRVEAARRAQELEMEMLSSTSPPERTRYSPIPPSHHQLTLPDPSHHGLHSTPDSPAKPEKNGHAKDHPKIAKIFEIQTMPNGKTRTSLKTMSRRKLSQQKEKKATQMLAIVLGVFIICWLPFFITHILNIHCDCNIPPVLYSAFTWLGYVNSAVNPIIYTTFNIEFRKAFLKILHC
- ASSAY REMARKS: Binding affinity against cloned human Dopamine receptor D2 (long) using [125I]iodosulpiride as radioligand
REPORTED ENDPOINT: Ki (nM)

Known results for molecules:
MOLECULE: COc1cc2ccccc2cc1C(=O)NC1CCN(Cc2ccccc2)C1 (centres undefined)
Ki (nM): 39.8
--
MOLECULE: O=C(OCC1CCN(Cc2ccccc2)CC1)c1ccc(Cl)cc1
Ki (nM): 2000

P = COc1cc2ccccc2cc1COCC1CCN(Cc2ccccc2)CC1
Q = COc1cc2ccccc2cc1C(=O)NCC1CCN(Cc2ccccc2)CC1
Ask | Hi, I'm comparing two records. Which one has the lower Ki, P or Q ? Let me know the label of the one you choose.
Reply | Q
(Q: 126 nM, P: 1000 nM)
